Here is a set of compounds with reported Kd for Serine/threonine-protein kinase PLK1 (Homo sapiens), compiled from the literature.
assay.endpoint: Kd (µM)

Answered examples (2):
I looked up Cc1ccccc1OCC(=O)N/N=C/c1ccc2c(c1)OCCO2 and its Kd for Serine/threonine-protein kinase PLK1 (Homo sapiens) was 44.2

Query CC(C)C[C@H](NC(=O)[C@@H]1CCCN1C(=O)CCCCCNC(=O)[C@H](CCCNC(=N)N)NC(=O)[C@H](CCCNC(=N)N)NC(=O)[C@H](CCCNC(=N)N)NC(=O)[C@H](CCCNC(=N)N)NC(=O)[C@H](CCCNC(=N)N)NC(=O)[C@H](CCCNC(=N)N)NC(=O)[C@H](CCCNC(=N)N)NC(=O)[C@H](CCCNC(=N)N)NC(=O)[C@H](CCCNC(=N)N)NC(=O)[C@H](CCCNC(=N)N)NC(=O)[C@H](CCCNC(=N)N)NC(=O)[C@@H](N)CCCNC(=N)N)C(=O)N[C@@H](Cc1cnc[nH]1)C(=O)N[C@@H](CO)C(=O)N[C@H](C(N)=O)[C@@H](C)OP(=O)(O)O on Serine/threonine-protein kinase PLK1 (Homo sapiens); Kd returned: 2.2

I: CCOC(=O)c1oc2ccccc2c1CBr
II: CSCC[C@H](NC(=O)c1ccc2c(c1)C1(OC2=O)c2ccc(O)cc2Oc2cc(O)ccc21)C(=O)N[C@@H](CCC(N)=O)C(=O)N[C@@H](CO)C(=O)N[C@H](C(=O)N1CCC[C@H]1C(=O)N[C@@H](CC(C)C)C(=O)O)[C@@H](C)OP(=O)(O)O
Query string: Select the item with the higher value of Kd from the options I and II listed. When you have decided, please share the label of that item.
Result string: I
